- experimental.details: RAM signaling pathway blockade in yeast – S. cerevisiae, Pdr1DBD-CYC8 efflux-inhibited sensitized strain, primary screen (AID 1298);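 also: 0% = DMSO untreated cells without growth and 100% = 10 µM 1-NA-PP1 full growth; higher means more yeast growth rescued from 5-FOA killing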
- measurement.context: S. cerevisiae cbk1-as DSE1-URA3 strain, 5-FOA growth OD615, 2 d; at 50 µM; stronger effect = higher value
observed.property: RAM network inhibition (%)
Return type: number; implicit unit %.

Example cases with answers are listed next.
compound	RAM network inhibition, %
Cc1cc2ncn(CC(O)COC3CCCCC3)c2cc1C (stereo not given)	4.21
CCCc1ccc(Oc2c(-c3ccc(O)c(C)c3O)n[nH]c2C)cc1	-1.26
Cn1c(=O)cc(N2CCc3ccccc32)[nH]c1=O	-1.11
COCCCNC(=O)Cn1nnc(-c2ccc(NC(=O)c3ccc(F)cc3)cc2)n1	4.54

Incoming: Which RAM network inhibition value belongs to O=C(NCc1cccnc1)c1nnc(Cc2ccc(F)cc2)o1 ?
Outgoing: 3.62

* * *

- experimental.details: reversal of MRP1-mediated doxorubicin resistance, pilot screen, H69AR cells, doxorubicin co-treatment (AID 601)
- measurement.context: H69AR cells + 2 uM doxorubicin, CellTiter-Glo, 72 h; at 10 µM; stronger effect = higher value
Each item that follows carries a reported differential viability (reversal).
Return type: number; implicit unit %.

Example cases with answers are listed next.
compound	unit.string	differential viability (reversal)
O=C1c2ccccc2C(O)(Cc2ccccc2)N1Cc1ccco1 (stereo not given)	%	10.1
O=C(NC(C(=O)c1ccccc1)n1ccc(=O)[nH]c1=O)c1ccccc1 (stereo not given)	%	6.79
COc1ccccc1-c1nc(C#N)c(N2CCN(c3ccccc3)CC2)o1	%	10.2
CCN(CC)CCN1C(=O)Cn2c(C)c(C)c3cccc1c32	%	-1.94
CCOC(=O)c1ccc(NC(=O)CSc2n[nH]c(-c3ccncc3)n2)cc1	%	-1.68
COc1cccc(NC(=O)COc2ccccc2C(N)=O)c1	%	16

Incoming: Which differential viability (reversal) value belongs to O=C(CCCC(=O)N(CC(=O)NC1CCCCC1)Cc1ccc2c(c1)OCO2)Nc1ccccn1 ?
Outgoing: 10.4

Incoming: Which differential viability (reversal) value belongs to O=C(CSc1nc(-c2ccccc2)cs1)NCc1ccco1 ?
Outgoing: 1.79

Incoming: Which differential viability (reversal) value belongs to CCC1CCCCN1C(=O)Cn1c(C(=O)OC)cc2sc(Cl)cc21 (stereo not given) ?
Outgoing: -17

Incoming: Which differential viability (reversal) value belongs to CCOC(=O)c1oc2cccc(OC(C)=O)c2c1C ?
Outgoing: -0.89

Incoming: Which differential viability (reversal) value belongs to CCOC(=O)N1CCN(C(=O)CCc2ccc(S(=O)(=O)NCCc3ccccc3)cc2)CC1 ?
Outgoing: 17.6

Incoming: Which differential viability (reversal) value belongs to CCc1nnc(NC(=O)c2ccc(S(=O)(=O)NC3CCCCC3)cc2)s1 ?
Outgoing: 43

Incoming: Which differential viability (reversal) value belongs to Cc1csc(NC(=O)c2cc3c(s2)-c2ccccc2OC3)n1 ?
Outgoing: -17.7

Incoming: Which differential viability (reversal) value belongs to CCOC(=O)c1cc(C)n(CCCN2CCOCC2)c1C ?
Outgoing: -4.19

Incoming: Which differential viability (reversal) value belongs to COc1cc(S(=O)(=O)N2CCC(N3CCCCC3)CC2)ccc1-n1cnnn1 ?
Outgoing: 8.69

Incoming: Which differential viability (reversal) value belongs to COc1ccccc1N=Cc1nc(-c2ccccc2)oc1OC(C)=O ?
Outgoing: -13.8

Incoming: Which differential viability (reversal) value belongs to CCS(=O)(=O)N1CCC(C(=O)NCCc2ccc(C)cc2)CC1 ?
Outgoing: 7.41

Incoming: Which differential viability (reversal) value belongs to Nn1c(SCC(=O)NC2CCCCC2)nnc1C1CC1 ?
Outgoing: 0.415

Incoming: Which differential viability (reversal) value belongs to O=C(COc1ccccc1)NCC(c1cccs1)N1CCOCC1 (stereo not given) ?
Outgoing: 14.4

Incoming: Which differential viability (reversal) value belongs to O=C(NCc1ccc(F)cc1)C1CCN(C(=O)NCc2ccccc2)CC1 ?
Outgoing: 6.81

* * *

- experimental.details: reversal of MRP1-mediated doxorubicin resistance, pilot screen, H69AR cells, doxorubicin co-treatment (AID 601)
- measurement.context: H69AR cells + 2 uM doxorubicin, CellTiter-Glo, 72 h; measured here: viability with 2 uM doxorubicin; at 10 µM; stronger effect = lower value
observed.property: viability
Respond with a number, then the unit of measure.

smiles.record	reading
COC(=O)c1cc(S(=O)(=O)N2CCC(C)CC2)ccc1F	89.2%

Incoming: Which viability value belongs to NC(=O)COC(=O)c1ccc(S(=O)(=O)N2CCCCCC2)cc1 ?
Outgoing: 90.9%

Incoming: Which viability value belongs to Cc1cc(NC(=O)CSc2nccn2-c2ccc(F)cc2)no1 ?
Outgoing: 88.4%

* * *

- experimental.details: 384-well plate pilot, post-Golgi transport modulator project, inhibition of yeast transport mutant growth (AID 636)
- measurement.context: absorbance 615 nm, about 18 h, stronger effect = higher value
Each item that follows carries a reported inhibition.
Return type: number; implicit unit %.

smiles.record	inhibition (%)
COc1cc(OC)cc(-c2nc3cc(C)ccc3o2)c1	-3.16

Incoming: Which inhibition value belongs to CCOC(=O)N1CCN(S(=O)(=O)c2cc(C)c(C)cc2C)CC1 ?
Outgoing: -4.34

Incoming: Which inhibition value belongs to O=C1OC2(c3ccccc3)C3CCCC2C13 ?
Outgoing: -6.44

Incoming: Which inhibition value belongs to O=C(c1ccco1)N1CCN(c2ccc(Cl)cc2)CC1 ?
Outgoing: -0.93

Incoming: Which inhibition value belongs to Cc1cc(C(F)F)n2ncc(C(=O)NC3CCCCCC3)c2n1 ?
Outgoing: -4.74

Incoming: Which inhibition value belongs to Cc1cc(C)c(S(=O)(=O)Nc2cccnc2)c(C)c1 ?
Outgoing: -4.93

* * *

Each item that follows carries a reported RAM network inhibition.
- experimental.details: RAM signaling pathway blockade in yeast – S. cerevisiae, Pdr1DBD-CYC8 efflux-inhibited sensitized strain, primary screen (AID 1298);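 also: 0% = DMSO untreated cells without growth and 100% = 10 µM 1-NA-PP1 full growth; higher means more yeast growth rescued from 5-FOA killing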
- measurement.context: S. cerevisiae cbk1-as DSE1-URA3 strain, 5-FOA growth OD615, 2 d; at 50 µM; stronger effect = higher value
Activity calls are given as the source filed them.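 Rule for the calls: active = RAM network inhibition above 8.4% in each of two replicates, 3 SD over the compound average; inconclusive = above 8.4% inhibition in only one replicate; inactive = 8.4% inhibition or less in each replicate.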

Example cases with answers are listed next.
molecule	RAM network inhibition
CN1CCN(CCCNC(=O)c2cc3c(=O)n(C)c4ccccc4c3s2)CC1	1.14% (inactive)
COc1cccc(-c2csc(NC(=O)C3CC3)n2)c1	1.49% (inactive)
COc1ccc(Cl)cc1Nc1nc(N2CCCC2)nc(N2CCCC2)n1	6.43% (inactive)
CC(C)CN(CC(C)C)c1nnc(N)s1	1.13% (inactive)

Turning to the following molecule.
Incoming: Which RAM network inhibition value belongs to CCOc1cc(C2CC(=O)NC(SCC)=C2C#N)ccc1O (stereo not given) ?
Outgoing: 0.15% (inactive)

* * *

Each item that follows carries a reported RAM network inhibition.
- experimental.details: RAM signaling pathway blockade in yeast – S. cerevisiae, Pdr1DBD-CYC8 efflux-inhibited sensitized strain, primary screen (AID 1298);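 also: 0% = DMSO untreated cells without growth and 100% = 10 µM 1-NA-PP1 full growth; higher means more yeast growth rescued from 5-FOA killing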
- measurement.context: S. cerevisiae cbk1-as DSE1-URA3 strain, 5-FOA growth OD615, 2 d; at 50 µM; stronger effect = higher value
Return type: number; implicit unit %.

molecule	reading
COc1cccc(Nc2cc(C)nc3nc(C)nn23)c1	2.37
COc1ccc(S(=O)(=O)N2CCC(C(=O)N3CCN(c4ccccc4OC)CC3)CC2)cc1	0
O=C(c1ccco1)N1CCN(C(=O)C2Cc3ccccc3CN2S(=O)(=O)c2ccc(F)cc2)CC1 (centres undefined)	7.28
Cc1ccc(OCC(O)CN2CCN(CC(O)COc3ccc(C)cc3Cl)CC2)c(Cl)c1 (centres undefined)	2.76
CC(=O)c1c(Nc2ccc3c(c2)OCCO3)oc(C)cc1=O	-2.1
Cc1csc(SCC(=O)c2ccc(S(=O)(=O)N3CCOCC3)cc2)n1	7.03

Incoming: Which RAM network inhibition value belongs to O=C(NCCC1=CCCCC1)NC1CCCCC1 ?
Outgoing: 5.84

Incoming: Which RAM network inhibition value belongs to Cc1cc(N2CCN(S(=O)(=O)c3ccc(Cl)cc3)CC2)c2ccccc2n1 ?
Outgoing: 2.74

* * *

- experimental.details: reversal of MRP1-mediated doxorubicin resistance, pilot screen, H69AR cells, doxorubicin co-treatment (AID 601)
- measurement.context: H69AR cells, CellTiter-Glo, 72 h; compound alone cytotoxicity; at 10 µM
observed.property: viability (%)
Return type: number; implicit unit %.

Example cases with answers are listed next.
compound	viability (%)
CCN(CC)CCN1C(=O)C(=O)/C(=C(/O)c2c(C)[nH]c(C(=O)OC)c2C)C1c1ccccc1OC (stereo unspecified)	68.3
C=CCn1c(-c2ccc(OC)cc2)nc2ccccc21	95.5
COc1cccc(OC)c1C(=O)N1CCN(S(=O)(=O)c2ccccc2)CC1	97.2

Incoming: Which viability value belongs to CCOc1cc(C(=O)NCC2CCCO2)cc(OCC)c1OCC (stereo unspecified) ?
Outgoing: 102

Incoming: Which viability value belongs to CCN(CC)CCNC(=O)c1cc(S(C)(=O)=O)ccc1OC ?
Outgoing: 111

Incoming: Which viability value belongs to CCOC(=O)C1CCCN(C(=O)c2cc3c(=O)n4cccc(C)c4nc3n2C)C1 (stereo unspecified) ?
Outgoing: 94.3

Incoming: Which viability value belongs to COc1cc(OC)cc(C(=O)NCCN2CCOCC2)c1 ?
Outgoing: 94.1

Reference source: PubChem BioAssay
